Entry source: patent US20220315554A1

Recorded pIC50, one value per entry.
Biological target: Human recombinant FAP (Homo sapiens, UniProt Q12884)
Sequence (Q12884 whole entry): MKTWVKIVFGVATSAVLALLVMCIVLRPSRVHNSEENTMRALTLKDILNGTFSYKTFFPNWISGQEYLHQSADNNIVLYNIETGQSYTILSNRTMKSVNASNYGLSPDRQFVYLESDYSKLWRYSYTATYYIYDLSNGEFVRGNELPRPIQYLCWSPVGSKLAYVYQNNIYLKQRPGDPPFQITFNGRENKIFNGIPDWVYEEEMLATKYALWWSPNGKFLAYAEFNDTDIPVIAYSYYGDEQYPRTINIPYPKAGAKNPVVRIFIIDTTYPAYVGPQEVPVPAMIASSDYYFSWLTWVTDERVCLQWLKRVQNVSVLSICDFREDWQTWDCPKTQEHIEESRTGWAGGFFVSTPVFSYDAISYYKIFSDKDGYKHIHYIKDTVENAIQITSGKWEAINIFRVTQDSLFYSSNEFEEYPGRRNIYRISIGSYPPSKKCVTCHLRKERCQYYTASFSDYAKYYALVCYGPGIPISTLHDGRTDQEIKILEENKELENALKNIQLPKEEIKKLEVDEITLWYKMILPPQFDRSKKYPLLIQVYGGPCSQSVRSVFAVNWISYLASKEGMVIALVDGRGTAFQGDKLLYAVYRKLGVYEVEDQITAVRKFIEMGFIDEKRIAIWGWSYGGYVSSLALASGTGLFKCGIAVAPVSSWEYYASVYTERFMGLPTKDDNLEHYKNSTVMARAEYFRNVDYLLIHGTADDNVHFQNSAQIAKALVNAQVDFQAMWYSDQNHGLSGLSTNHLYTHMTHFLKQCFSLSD
Assay: FRET-based FAP protease activity assay
Assay type: biochemical
Parameters: purchased R&D systems 3715-SE
Conditions: pIC50 Category (Activity), FRET substrate, 37° C.
pIC50: −log10 of the molar value.
assay readout: pIC50

CCCCCC(=O)N[C@H]1CSCc2cc(CSCCNC(=O)CN3CCN(CC(=O)O)CCN(CC(=O)O)CC3)cc(c2)CSC[C@@H](C(=O)O)NC(=O)[C@H](Cc2ccccc2)NC(=O)[C@H](CCC(N)=O)NC(=O)[C@H]([C@@H](C)O)NC(=O)[C@@H]2CCCN2C(=O)[C@@H]2CCCN2C1=O :: > 8.00
CCCCCC(=O)N[C@H]1CSCc2cc(CSCCNC(=O)CCC(=O)NCCCOCCOCCOCCCNC(=O)c3ccc(NN)nc3)cc(c2)CSC[C@@H](C(=O)O)NC(=O)[C@H](Cc2ccccc2)NC(=O)[C@H](CCC(N)=O)NC(=O)[C@H]([C@@H](C)O)NC(=O)[C@@H]2CCCN2C(=O)[C@@H]2CCCN2C1=O :: > 8.00
